# run.description: yeast display, Sf9 membrane polyspecificity reagent, FACS + sequencing; frameworks hold sequencing errors
value.kind: polyreactivity (PSR sort gate)

{"item.sequence": "QVQHVESGGGLVQAGGSHRLSCAASGRTFDTNDMGWYRQPPGKERELVAVITARGGNTSYADSVKGRFTISRDNAKNPVYLQMNSLKPEDTAVYYCAAESQSTSYGLDYWGQGTQVTVSS", "value.observed": "low polyreactivity"}
{"item.sequence": "QVPLVESGGGLGQAGGSLRLSCGASGSIFSLYAMGWSRLAPGKEREVVASLTWRGDSTYYADSVTGRFTISRDNAKNTVYLQMNSLKPEDTAVYNCNAVYYYAEPTSFGGYDYWGQGTQVTVSS", "value.observed": "low polyreactivity"}
{"item.sequence": "QVQLVESGGGLVQAGGSLRLSCAASGSIFDVNAMGWYRQAPGKERELVAAISDSTTSTYYADSVKGRFTISRDNAKNTVYLQMNSLKPEDTAVYYCNTPGLPIDSEYDYWGQGTQVTVSS", "value.observed": "low polyreactivity"}
{"item.sequence": "QVQLVESGGGLVQAGGSLRLSCAASGRTFRRYAMGWYRQAPGKERELVAAITWGAGSTRYADSVKGRFTISRDNAKNTVYLQMNSLKPEDTAVYYCAAENTRAYGMYYWGQGTQVTVSS", "value.observed": "high polyreactivity"}
{"item.sequence": "QVQLVESGGGLVQAGGSLRLSCAASGSTFYYVNAMGWYRQAPGKEREFVAAISSSSGSTYYADSVKGRFTISRDNAKNTVYLQMNSLKPEDTAVYYCAKVPRYYKSYYWGQGTQVTVSS", "value.observed": "high polyreactivity"}

Data provenance is the nanobody polyreactivity screen of Harvey et al. (2022).
